- System: HepG2
- assay_name: Antiproliferative activity against human HepG2 cells after 48 hrs by MTT assay
- Format: functional, cell-based
- protocol_conditions: HepG2, 48 h
Would you kindly list pIC50 for each of these compounds?
Answers are plain numbers, as −log10 of the molar value.

Example entries begin here.
>  <compound>
C#Cc1cccc(Nc2ncnc3cc(OCCOC)c(OCCOC)cc23)c1

>  <measurement>
5.24

$$$$
>  <compound>
COC(=O)[C@H](C)NP(=O)(Oc1ccccc1)Oc1cc(O)c2c(=O)cc(-c3ccc(O)cc3)oc2c1 (some centres undefined)

>  <measurement>
4.46

$$$$
>  <compound>
COC(=O)[C@H](C)NP(=O)(Oc1ccccc1)Oc1ccc2c(=O)c(-c3ccc(O)cc3)coc2c1 (some centres undefined)

>  <measurement>
4.54

$$$$

--- query ---
Query: # returns recorded pIC50 (system: HepG2) for COC(=O)[C@H](CC(C)C)NP(=O)(Oc1ccccc1)Oc1cc(O)c2c(=O)cc(-c3ccc(O)cc3)oc2c1 (some centres undefined)
Result: 4.43

The measured values listed here are drawn from ChEMBL document CHEMBL3769357.
